Molecular target: human T-bet (Homo sapiens, UniProt Q9UL17)
Construct: expressed in transfected cells; host or cells: engineered HEK cells (HEKT-bet)
Sequence (Q9UL17 whole entry): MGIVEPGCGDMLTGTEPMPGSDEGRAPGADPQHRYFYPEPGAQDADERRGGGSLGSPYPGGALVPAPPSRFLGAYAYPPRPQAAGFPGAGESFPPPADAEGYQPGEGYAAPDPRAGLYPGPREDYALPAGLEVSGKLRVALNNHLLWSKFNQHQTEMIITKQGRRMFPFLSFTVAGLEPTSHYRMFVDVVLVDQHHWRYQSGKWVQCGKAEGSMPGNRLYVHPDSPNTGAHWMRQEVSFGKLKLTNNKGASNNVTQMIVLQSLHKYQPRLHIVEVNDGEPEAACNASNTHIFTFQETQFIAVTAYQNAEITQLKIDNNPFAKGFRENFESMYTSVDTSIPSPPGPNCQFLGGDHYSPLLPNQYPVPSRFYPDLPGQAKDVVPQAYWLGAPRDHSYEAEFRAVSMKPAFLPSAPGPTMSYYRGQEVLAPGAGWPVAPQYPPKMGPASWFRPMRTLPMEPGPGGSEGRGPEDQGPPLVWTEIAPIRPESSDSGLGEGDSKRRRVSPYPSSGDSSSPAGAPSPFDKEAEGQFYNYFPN
Assay: HEKT-bet-luc assay (T-bet dependent luciferase reporter in engineered HEK cells)
Type: cell-based
Conditions: Table 4; HEKT-bet cells, compound 24 hours; IC50 normalized to reference ER-213038; read-out: IC50
Method: HEKT-bet-luc assay: This assay measures a T-bet dependent reporter (luciferase) activity in engineered HEK cells that express a human T-bet and a T-box responsive element driving luciferase reporter. HEKT-bet cells were plated at 2×10^4/well in 96-well plate and compound was added into cell culture for 24 hours. Luciferase activity was measured by adding 50 μl of Steady-Glo reagent (Promega) and samples were read in Victor V reader (PerkinElmer). […]
Assign classes using reported IC50 values and the ranges Low (below 200 nM), Medium (200 nM to below 300 nM), High (300 nM or more), please.

>>> label_value("CCN1C(=O)N(CCCc2ccccc2)C(=O)C12CCN(Cc1cccc3ccccc13)CC2")
"High"
>>> label_value("COCCN1C(=O)N(Cc2cccc(OC)c2)C(=O)C12CCN(Cc1ccc(OC)c(OC)c1C)CC2")
"High"
>>> label_value("COCCN1C(=O)N(Cc2cccc(OC)c2)C(=O)C12CCN(Cc1c(OC)ccc3ccccc13)CC2")
"Low"
>>> label_value("COc1cccc(CN2C(=O)N(CCO)C3(CCN(Cc4cc(OC)cc(OC)c4)CC3)C2=O)c1")
"Medium"
>>> label_value("COCCN1C(=O)N(Cc2cccc(OC)c2)C(=O)C12CCN(Cc1ccc3c4c(cccc14)CC3)CC2")
"Low"
>>> label_value("CCN1C(=O)N(Cc2cccc(OC)c2)C(=O)C12CCN(Cc1ccc3ccccc3c1)CC2")
"Medium"
>>> label_value("O=C1N(C/C=C/c2ccccc2)C(=O)C2(CCN(Cc3cccc4ccccc34)CC2)N1Cc1ccc(-n2cccn2)cn1")
"Medium"

----------
target: human T-bet (Homo sapiens); construct: expressed in transfected cells; host or cells: engineered HEK cells (HEKT-bet); assay: HEKT-bet-luc assay (T-bet dependent luciferase reporter in engineered HEK cells); type: cell-based; details: Table 4; HEKT-bet cells, compound 24 hours; IC50 normalized to reference ER-213038; read-out: IC50
observable: IC50 (nM)

>>> measured("COCCN1C(=O)N(Cc2ccc3ccccc3c2)C(=O)C12CCN(Cc1ccccc1)CC2")
498
>>> measured("COc1cccc(CN2C(=O)N(Cc3ccc(-n4cccn4)cc3)C3(CCN(Cc4cc(OC)cc(OC)c4)CC3)C2=O)c1")
159
>>> measured("COCN1C(=O)N(Cc2cc(OC)cc(OC)c2)C(=O)C12CCN(Cc1cc(OC)cc(OC)c1)CC2")
153
>>> measured("COCCN1C(=O)N(Cc2cccc(OC)c2)C(=O)C12CCN(Cc1cc3c(OC)cccc3cc1OC)CC2")
223
>>> measured("COCCN1C(=O)N(Cc2cccc(OC)c2)C(=O)C12CCN(Cc1ccc3ccccc3c1)CC2 [Example 161]")
169
>>> measured("COCCN1C(=O)N(Cc2cccc(OC)c2)C(=O)C12CCN(Cc1cc(C)c(C)cc1C)CC2")
125
>>> measured("O=C1N(/C=C/Cc2ccccc2)C(=O)C2(CCN(Cc3cccc4ccccc34)CC2)N1CCO")
579
>>> measured("COCN1C(=O)N(Cc2cc(OC)cc(OC)c2)C(=O)C12CCN(Cc1cccc(OC)c1)CC2")
576
>>> measured("COc1cccc(CN2CCC3(CC2)NC(=O)N(C/C=C/c2ccccc2)C3=O)c1")
198

----------
Collected pIC50 values appear next to each entry.
Target: human T-bet (Homo sapiens, UniProt Q9UL17)
Construct: expressed in transfected cells; host or cells: engineered HEK cells (HEKT-bet)
Experiment: HEKT-bet-luc assay (T-bet dependent luciferase reporter in engineered HEK cells)
Format: cell-based
Conditions: Table 3; HEKT-bet cells, compound 24 hours; IC50 normalized to reference ER-213038; read-out: IC50
Experimental: HEKT-bet-luc assay: This assay measures a T-bet dependent reporter (luciferase) activity in engineered HEK cells that express a human T-bet and a T-box responsive element driving luciferase reporter. HEKT-bet cells were plated at 2×10^4/well in 96-well plate and compound was added into cell culture for 24 hours. Luciferase activity was measured by adding 50 μl of Steady-Glo reagent (Promega) and samples were read in Victor V reader (PerkinElmer). […]
pIC50: −log10 of the molar value.
observable: pIC50

>>> measured("COCCN1C(=O)N(CCCc2ccccc2)C(=O)C12CCN(Cc1ccccc1)CC2")
6.08
>>> measured("COc1cccc(CN2C(=O)N(Cc3cccc(C#N)c3)C3(CCN(Cc4ccccc4)CC3)C2=O)c1")
5.96
>>> measured("COCCN1C(=O)N(Cc2ccc3cc4ccccc4cc3c2)C(=O)C12CCN(Cc1ccccc1)CC2")
5.99
>>> measured("O=C1N(C/C=C/c2ccccc2)C(=O)C2(CCN(Cc3cccc4ccccc34)CC2)N1CCCO")
6.10
>>> measured("COCCN1C(=O)N(C/C=C/Cc2cccc(OC)c2)C(=O)C12CCN(Cc1ccccc1)CC2")
6.08
>>> measured("COCCN1C(=O)N(Cc2cccc(OC)c2)C(=O)C12CCN(Cc1cc(F)c(O)c(OC)c1)CC2")
5.81
>>> measured("COCCN1C(=O)N(Cc2cccc(OC)c2)C(=O)C12CCN(Cc1cccc(-c3cccc(O)c3)c1)CC2")
6.17
>>> measured("COCCN1C(=O)N(Cc2cccc(OC)c2)C(=O)C12CCN(CC=C(c1ccccc1)c1ccccc1)CC2")
5.81
>>> measured("COCCN1C(=O)N(Cc2cccc(OC)c2)C(=O)C12CCN(Cc1cccc3nsnc13)CC2")
5.91
>>> measured("COc1cc(CN2CCC3(CC2)C(=O)N(C/C=C/c2ccccc2)C(=O)N3CCn2cccc2)cc(OC)c1")
6.18
>>> measured("COc1cccc(CN2C(=O)N(CC=C(C)C)C3(CCN(Cc4ccccc4)CC3)C2=O)c1")
5.82
>>> measured("COCCN1C(=O)N(CCCCCCCCO)C(=O)C12CCN(Cc1ccccc1)CC2")
6.04
>>> measured("COCCN1C(=O)N(Cc2cccc(OC)c2)C(=O)C12CCN(Cc1ccc(-c3cccs3)s1)CC2")
5.70
>>> measured("COCCN1C(=O)N(Cc2cccc(OC)c2)C(=O)C12CCN(Cc1cc(C)c(C)s1)CC2")
6.07
>>> measured("COCCN1C(=O)N(CC#Cc2cccc(OC)c2)C(=O)C12CCN(Cc1ccccc1)CC2")
6.19
>>> measured("COCCN1C(=O)N(Cc2cccc(OC)c2)C(=O)C12CCN(C/C=C/c1ccc(OC)cc1)CC2")
5.83
>>> measured("COCCN1C(=O)N(CC(=O)c2ccc3ccccc3c2)C(=O)C12CCN(Cc1ccccc1)CC2")
5.84
>>> measured("COCCN1C(=O)N(Cc2cccc(OC)c2)C(=O)C12CCN(Cc1cc(O)c(OC)c(OC)c1)CC2")
5.73
>>> measured("COCCN1C(=O)N(Cc2cc(C(C)(C)C)cc(C(C)(C)C)c2)C(=O)C12CCN(Cc1ccccc1)CC2")
5.76
>>> measured("COc1cc(CN2CCC3(CC2)C(=O)N(Cc2cc(OC)cc(OC)c2)C(=O)N3CSC)cc(OC)c1")
5.94
>>> measured("COCCN1C(=O)N(CCCCOc2ccccc2)C(=O)C12CCN(Cc1ccccc1)CC2")
5.74
>>> measured("COCCN1C(=O)N(Cc2cccc(OC)c2)C(=O)C12CCN(Cc1ccc3ccc4cccc5ccc1c3c45)CC2")
5.74
>>> measured("COCCN1C(=O)N(CCOCc2ccccc2)C(=O)C12CCN(Cc1ccccc1)CC2")
5.72
>>> measured("COc1cccc(CN2C(=O)N(CCOCc3ccccc3)C3(CCN(Cc4ccccc4)CC3)C2=O)c1")
5.81
>>> measured("COc1cccc(CN2C(=O)N(Cc3cccc4cccnc34)C3(CCN(Cc4cccc5ccccc45)CC3)C2=O)c1")
5.86
>>> measured("COCCN1C(=O)N(Cc2cccc(OC)c2)C(=O)C12CCN(Cc1cccc(-c3ccc4[nH]ccc4c3)c1)CC2")
6.06

----------
target: human T-bet (Homo sapiens, UniProt Q9UL17); construct: expressed in transfected cells; host or cells: engineered HEK cells (HEKT-bet); assay: HEKT-bet-luc assay (T-bet dependent luciferase reporter in engineered HEK cells); type: cell-based; conditions: Table 4; HEKT-bet cells, compound 24 hours; IC50 normalized to reference ER-213038; read-out: IC50
pIC50: −log10 of the molar value.
observable: pIC50

>>> measured("COCCN1C(=O)N(Cc2cccc(OC)c2)C(=O)C12CCN(Cc1cccc(N(C)c3ccccc3)c1)CC2")
6.27
>>> measured("COCCN1C(=O)N(Cc2cccc(OC)c2)C(=O)C12CCN(Cc1cccc(N3CCOCC3)c1)CC2")
6.42
>>> measured("COCCN1C(=O)N(Cc2cccc(OC)c2)C(=O)C12CCN(Cc1cccc3c1OCO3)CC2")
6.48
>>> measured("COCCN1C(=O)N(Cc2cccc(OC)c2)C(=O)C12CCN(Cc1cccc(-c3ccccc3)c1)CC2")
6.65
>>> measured("COCCN1C(=O)N(Cc2cccc(OC)c2)C(=O)C12CCN(Cc1c(C)ccc3ccccc13)CC2")
7.22
>>> measured("COCCN1C(=O)N(Cc2ccc3ccccc3c2)C(=O)C12CCN(Cc1cccc(OC)c1)CC2")
6.74
>>> measured("COCCN1C(=O)N(Cc2cccc(OC)c2)C(=O)C12CCN(Cc1c(F)ccc(C)c1Cl)CC2")
6.25
>>> measured("COCCN1C(=O)N(Cc2ccc3ccccc3c2)C(=O)C12CCN(Cc1cccc(C)c1)CC2")
6.76
>>> measured("COCCN1C(=O)N(Cc2cccc(OC)c2)C(=O)C12CCN(Cc1cccc(-c3ccco3)c1)CC2")
6.35
>>> measured("COCCN1C(=O)N(Cc2cccc(OC)c2)C(=O)C12CCN(Cc1cc(OC)c3c(c1)OCO3)CC2")
6.36
>>> measured("COCCN1C(=O)N(C/C=C/c2ccccc2F)C(=O)C12CCN(Cc1ccccc1)CC2")
6.74
>>> measured("COCCN1C(=O)N(CCCc2ccccc2OC)C(=O)C12CCN(Cc1ccccc1)CC2 [Example 222]")
6.44
>>> measured("COc1cccc(CN2C(=O)N(Cc3cccc(OC)c3)C3(CCN(Cc4cc(OC)cc(OC)c4)CC3)C2=O)c1")
6.54
>>> measured("CCN1C(=O)N(Cc2cccc(OC)c2)C(=O)C12CCN(Cc1cc(OC)cc(OC)c1)CC2 [Example 167]")
6.73
>>> measured("COCN1C(=O)N(/C=C/Cc2ccccc2)C(=O)C12CCN(Cc1cc(OC)cc(OC)c1)CC2")
6.23
>>> measured("COCCN1C(=O)N(Cc2cccc(OC)c2)C(=O)C12CCN(Cc1ccc(C)c(C)c1)CC2")
6.47
>>> measured("CCN1C(=O)N(Cc2ccc3ccccc3c2)C(=O)C12CCN(Cc1cc(OC)cc(OC)c1)CC2")
6.69
>>> measured("COCCN1C(=O)N(Cc2cccc(OC)c2)C(=O)C12CCN(Cc1cccc(-c3ccoc3)c1)CC2")
6.32
>>> measured("COCCN1C(=O)N(Cc2cccc(OC)c2)C(=O)C12CCN(Cc1cc(OC)c(Cl)cc1F)CC2")
6.29
>>> measured("COCCN1C(=O)N(Cc2cccc(OC)c2)C(=O)C12CCN(Cc1c(F)cccc1OC)CC2")
6.29
>>> measured("CCN1C(=O)N(CCCOc2ccccc2)C(=O)C12CCN(Cc1cccc3ccccc13)CC2")
6.31
